Biological target: EGFR (Homo sapiens)
Sequence (P00533 25-1210): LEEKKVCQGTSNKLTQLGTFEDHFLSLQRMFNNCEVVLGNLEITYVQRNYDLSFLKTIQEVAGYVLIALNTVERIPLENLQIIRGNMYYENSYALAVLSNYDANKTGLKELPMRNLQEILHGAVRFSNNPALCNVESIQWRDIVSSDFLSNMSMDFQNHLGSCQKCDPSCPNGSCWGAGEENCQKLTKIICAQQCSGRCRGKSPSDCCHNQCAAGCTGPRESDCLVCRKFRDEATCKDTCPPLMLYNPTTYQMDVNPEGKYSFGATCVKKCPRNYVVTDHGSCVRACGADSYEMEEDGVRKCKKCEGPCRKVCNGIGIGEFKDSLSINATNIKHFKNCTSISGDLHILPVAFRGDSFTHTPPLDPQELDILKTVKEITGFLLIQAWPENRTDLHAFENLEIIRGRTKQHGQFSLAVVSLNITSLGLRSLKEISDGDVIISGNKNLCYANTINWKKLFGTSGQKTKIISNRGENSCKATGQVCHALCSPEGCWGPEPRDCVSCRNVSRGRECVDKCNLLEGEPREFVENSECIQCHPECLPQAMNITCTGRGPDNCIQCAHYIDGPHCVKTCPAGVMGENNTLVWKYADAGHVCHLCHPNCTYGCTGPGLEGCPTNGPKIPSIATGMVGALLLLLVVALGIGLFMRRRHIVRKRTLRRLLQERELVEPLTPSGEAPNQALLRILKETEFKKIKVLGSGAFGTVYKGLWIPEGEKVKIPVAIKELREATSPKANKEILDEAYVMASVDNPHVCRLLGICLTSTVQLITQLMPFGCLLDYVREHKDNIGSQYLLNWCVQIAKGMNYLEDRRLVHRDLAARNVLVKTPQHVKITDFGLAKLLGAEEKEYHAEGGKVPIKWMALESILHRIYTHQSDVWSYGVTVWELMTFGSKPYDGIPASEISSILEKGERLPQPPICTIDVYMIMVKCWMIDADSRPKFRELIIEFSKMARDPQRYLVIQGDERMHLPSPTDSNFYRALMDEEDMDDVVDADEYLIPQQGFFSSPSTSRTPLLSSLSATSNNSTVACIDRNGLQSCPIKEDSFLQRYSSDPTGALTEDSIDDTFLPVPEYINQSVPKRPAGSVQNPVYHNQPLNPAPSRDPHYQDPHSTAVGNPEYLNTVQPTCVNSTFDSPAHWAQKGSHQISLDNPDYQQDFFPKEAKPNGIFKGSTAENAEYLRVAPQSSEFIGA
Experiment: ADP-Glo in vitro kinase assay, EGFR kinase inhibition
Format: biochemical
Design: purchased SignalChem
Settings: ATP 10 μM, 30 minutes at room temperature
pIC50: −log10 of the molar value.
quantity_kind: pIC50

line_notation	pIC50
CN1CCC(c2ccc(C(=O)Nc3n[nH]c4nc(Nc5ccc6c(c5)OCO6)ccc34)cc2)CC1	≤ 6.00
CN1CCC(c2ccc(C(=O)Nc3n[nH]c4nc(Nc5ccccc5)ccc34)cc2)CC1	≤ 6.00

// moving on: another record for pIC50
Task item: Which pIC50 is reported for this compound? CN1CCC(Oc2ccc(C(=O)Nc3n[nH]c4cc(Oc5ccccc5F)ccc34)cc2)CC1
Reply: ≤ 6.00
